Assayed system: T1, human Hsp70 (HspA1A) (human, UniProt P0DMV8 1-641)
T1 construct: HspA1A (Hsp70), human; HspA1A gene cloned into pMCSG7; no tag cleavage is described; source: E. coli BL-21 (DE3), purified (TALON, HiTrap Q anion exchange, Superdex 200)
T1 sequence (P0DMV8 whole entry): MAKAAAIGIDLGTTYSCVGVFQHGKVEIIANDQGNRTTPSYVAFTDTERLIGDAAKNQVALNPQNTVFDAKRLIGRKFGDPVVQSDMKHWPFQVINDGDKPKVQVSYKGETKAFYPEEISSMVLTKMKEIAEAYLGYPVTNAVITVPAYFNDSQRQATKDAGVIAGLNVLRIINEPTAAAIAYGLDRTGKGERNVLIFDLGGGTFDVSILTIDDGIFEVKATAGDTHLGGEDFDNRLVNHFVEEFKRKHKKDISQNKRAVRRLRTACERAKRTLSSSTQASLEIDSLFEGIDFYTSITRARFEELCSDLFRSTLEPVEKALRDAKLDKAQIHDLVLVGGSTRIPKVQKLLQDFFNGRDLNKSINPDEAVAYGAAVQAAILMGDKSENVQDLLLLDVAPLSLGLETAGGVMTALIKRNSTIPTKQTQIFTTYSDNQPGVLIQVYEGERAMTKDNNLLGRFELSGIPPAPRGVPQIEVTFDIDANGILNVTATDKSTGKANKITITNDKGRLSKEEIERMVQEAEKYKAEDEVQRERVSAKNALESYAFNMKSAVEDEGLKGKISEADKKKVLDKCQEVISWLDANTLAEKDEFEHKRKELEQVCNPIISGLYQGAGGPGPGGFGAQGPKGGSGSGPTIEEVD
Test protocol: fluorescence polarisation; 0.2 μM FITC-JD_(1–82) with a titration of Hsp70 or CTD_(170–232) (150–0 μM) in 1× PBS, 1 mM TCEP, pH 7.4; one site-specific binding fit
Condition label: both partners purified
Measured quantity: Kd
Number first, unit second.

Q. What value of Kd has been recorded for this entry: FITC-labeled JD_(1–82) of DnaJB8 (domain or fragment, human, UniProt Q8NHS0 1-82, looked up, FITC (labeled with 10× FITC-maleimide; site not stated), DnaJB8, human, J-domain, residues 1-82; Same construct as m4, with the fluorescein label; also called JD_(1–82)-FITC; JD_(1–82)–FITC; source: E. coli BL-21 (DE3), purified (TALON, Superdex 200), labeled with FITC-maleimide, excess dye removed by Superdex 75) MANYYEVLGVQASASPEDIKKAYRKLALRWHPDKNPDNKEEAEKKFKLVSEAYEVLSDSKKRSLYDRAGCDSWRAGGGASTP
A. 413 nM
